Catalogue of variants with associated polymerase ribozyme fitness (log ratio)
B1: TPR t1 (parent)
chain: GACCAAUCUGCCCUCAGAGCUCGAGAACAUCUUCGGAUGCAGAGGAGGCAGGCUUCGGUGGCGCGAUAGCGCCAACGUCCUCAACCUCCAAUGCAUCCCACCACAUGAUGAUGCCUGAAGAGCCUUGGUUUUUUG

variants of: B1; experiment: polymerase ribozyme fitness, log enrichment relative to wild type (log ratio); higher = more active; in vitro selection for triplet polymerase activity

# annotated cases, reported polymerase ribozyme fitness (log ratio) shown
INSERT INTO measurements (sequence_record, quantity, assay_result) VALUES
  ('GACCAAUCUGCCCUCAGAGUUCGAGAACAUCUUCGGAUGCAGAGGAGGCAGGCUUCGGUAGCGCGAUAGCGCCAACGUCCUCAACCUCCAAUGCAUCCCACCACAUCAUGAUGCCUGAACAGCCUUGGUUUUUUG [C20U G60A G107C G120C]', 'polymerase ribozyme fitness (log ratio)', -5.52),
  ('GACCAAUCUACCCUCAGAGCUUGAGAACAUCUUUGGAUGCAGAGGAGGCAGGCUUCGGUGGCGCGAUAGCGACAACGUCCUCAACCUCCAAUGCAUCCCACCACAUGAUGAUGCGUGAAGCUCCUUGGUUUUUUG [G10A C22U C34U C72A C115G A121C G122U]', 'polymerase ribozyme fitness (log ratio)', -8.04),
  ('GACCAAUCUGCCCUCAGAGCUCGAGAACAUCUUCGGAUGCAGAGGAGGCAGGCUUCGGUGGCGCGAUAGCGCCGACGUCCUCAACCUCCAAUGUAUCCCACCACAUGAUGAUGCCUGAAGAGCCUUGGUUUUUUG [A74G C94U]', 'polymerase ribozyme fitness (log ratio)', 0.88),
  ('GACCAAUCUGCCCUCAGAGCUCGAGAACAUCUUCGGAUGCAGAGGAGGCAGGCUUCGGUGGCGCGAUAGCGCCAACGUCCUCAACCUACAAUCCAUCCCACCACAUGAUGAUGCCUGAAGAGCCUUGGUUUUUUG [C88A G93C]', 'polymerase ribozyme fitness (log ratio)', -2.45),
  ('GACCAAUCUGCCCUCAGAGCUCGAGAACAUCUUCGGAUGGAGAGGAGGCAGGCUUCGGUGGCGCGAUAGCGCCAACGUCCUCAACCUCCAAUGCAUCCCACCACAUGAAGAUGGCUGAAGAGCCUUGGUUUAUUG [C40G U109A C114G U132A]', 'polymerase ribozyme fitness (log ratio)', -4.05),
  ('GACCAAUCUGCCCUCAGAGCUCGAGAACAUCUUCGGAUGCAGAGGAGGCAGGCUUCGGUGGCGCGAUAGCGCCAACGUUCUCAACCUCCAAUGAAUCCUACCACAUGAUGAUGCCUGAAGGGCCUUGGUUUUUUG [C79U C94A C99U A121G]', 'polymerase ribozyme fitness (log ratio)', -2.9),
  ('GACCAAUCUGCCCUCAGAGCUCGAGAACAUCUUCGGAUGCAGAGGAGGCAGGCUUCGGUGGCGCGAUAGCGCCAACGUCCUCAACCUCCAAUGCAUGCCACGACAUGAUGGUGCCUGAAGAGCCUUGGUUUUUUG [C97G C102G A111G]', 'polymerase ribozyme fitness (log ratio)', -6.52),
  ('GACCAAUCUGCCCUUAGAGCUCGAGAACAUCUUCGGAUGCAGAGGAGGCAGGCUUCGGUGGCGCGAUAGCGCCAACGGCCUCAACUUCCAAUGCAUCCCACCACAUGAUGAUCCCUGAAGAGCCUUGGUUUUUUG [C15U U78G C86U G113C]', 'polymerase ribozyme fitness (log ratio)', -5.8);

Input: Identify measured polymerase ribozyme fitness (log ratio) associated with GACCAAUCUGCGCUCAGAGCUCGAGAACAUCUUCGGAUGCAGAGGUGGCAGGCUUCGGUGGCGCGAUAGCGCCAACGUCCUCAACCUCCAAUGCAUCCCACAACAUGAUGAUGCCUGAAGAGCCUUGGUUUUUUG [C12G A46U C102A]
Output: -2.85

Input: Identify measured polymerase ribozyme fitness (log ratio) associated with GACCAAUCUGCCCUCAGAGCUCGAGAACAUCUUCGGAUGCAGAGGAGGCAGGCUUCGGUGGCGCGAUAGCGCCAACGUCCUCAAACUCCAAUGGAUCCCACCACAUGAUAAUGCCUGAAGAGCCUUGGUUUUUUG [C85A C94G G110A]
Output: -3.12
